test system: B16-F10; test: Antitumor activity against metastatic mouse B16-F10 cells implanted in C57BL/6 mouse assessed as number of lung metastases at 9 to 9.5 mg/kg, ip administered for 12 days by histological analysis (reference value: 150 +/- 7); format: functional; conditions: dose 9-9.5 mg/kg, time 12 day
Here, each record is paired with measured Activity data.
Reply briefly: the number, and no unit.

Please review the following examples before continuing.
{"test.smiles": "CC(=O)O[C@H]1C(=O)[C@@]2(C)[C@H]([C@H](OC(=O)c3ccccc3)[C@]3(O)C[C@H](OC(=O)[C@H](O)[C@@H](NC(=O)c4ccccc4)c4ccccc4)C(C)=C1C3(C)C)[C@]1(OC(C)=O)CO[C@@H]1C[C@@H]2O", "reported.endpoint": "Activity", "recorded.result": 158}
{"test.smiles": "CCOC(=O)c1c(N2C(N)=C(C#N)C(=O)/C2=C\\C(=O)c2ccc(C)cc2)sc2c1CCCCC2", "reported.endpoint": "Activity", "recorded.result": 145}
{"test.smiles": "CCOC(=O)c1c(NC(=C\\C(=O)c2ccc(OC)cc2)/C([O-])=C(\\C#N)C(N)=O)sc2c1CCCC2.[K+]", "reported.endpoint": "Activity", "recorded.result": 161}

Qu. Item under review: COc1ccc(C(=O)/C=C2\C(=O)C(C#N)=C3NC(=O)c4c(sc5c4CCCCC5)N32)cc1 . Reported Activity?
Ans. 143

----------
test system: B16-F10; assay: Antitumor activity against metastatic mouse B16-F10 cells implanted in C57BL/6 mouse assessed as number of lung metastases at 4.6 to 42 mg/kg, ip administered every 3rd day for 22 days measured on day 23 by histological analysis (reference value: 223 +/- 12); type: functional; settings: dose 4.6-42 mg/kg, time 23 day
Here, each record is paired with measured Activity data.
Reply briefly: the number, and no unit.

Please review the following examples before continuing.
{"test.smiles": "CCOC(=O)c1c(N2C(N)=C(C#N)C(=O)/C2=C\\C(=O)c2ccc(C)cc2)sc2c1CCCCC2", "Activity": 29}
{"test.smiles": "COc1ccc(C(=O)/C=C2\\C(=O)C(C#N)=C3NC(=O)c4c(sc5c4CCCCC5)N32)cc1", "Activity": 55}

Qu. Item under review: CC(=O)O[C@H]1C(=O)[C@@]2(C)[C@H]([C@H](OC(=O)c3ccccc3)[C@]3(O)C[C@H](OC(=O)[C@H](O)[C@@H](NC(=O)c4ccccc4)c4ccccc4)C(C)=C1C3(C)C)[C@]1(OC(C)=O)CO[C@@H]1C[C@@H]2O . Reported Activity?
Ans. 50

----------
Here, each record is paired with measured Activity data.
tested on: B16-F10; assay: Antitumor activity against metastatic mouse B16-F10 cells implanted in C57BL/6 mouse assessed as number of lung metastases at 9 to 9.5 mg/kg, ip administered for 19 days by histological analysis (reference value: 190 +/- 9); format: functional; conditions: dose 9-9.5 mg/kg, time 19 day
Reply briefly: the number, and no unit.

{"test.smiles": "CCOC(=O)c1c(N2C(N)=C(C#N)C(=O)/C2=C\\C(=O)c2ccc(C)cc2)sc2c1CCCCC2", "tested.system": "B16-F10", "Activity": 67}

Qu. Item under review: COc1ccc(C(=O)/C=C2\C(=O)C(C#N)=C3NC(=O)c4c(sc5c4CCCCC5)N32)cc1 . Reported Activity?
Ans. 87

Qu. Item under review: CC(=O)O[C@H]1C(=O)[C@@]2(C)[C@H]([C@H](OC(=O)c3ccccc3)[C@]3(O)C[C@H](OC(=O)[C@H](O)[C@@H](NC(=O)c4ccccc4)c4ccccc4)C(C)=C1C3(C)C)[C@]1(OC(C)=O)CO[C@@H]1C[C@@H]2O . Reported Activity?
Ans. 97

Qu. Item under review: CCOC(=O)c1c(NC(=C\C(=O)c2ccc(OC)cc2)/C([O-])=C(\C#N)C(N)=O)sc2c1CCCC2.[K+] . Reported Activity?
Ans. 54
